Answer each item with its documented abundance fitness.
B1: Poly(rC)-binding protein 1, residues 278 to 350; numbered along this chain, Q15365 (parent)
chain: TQTTHELTIPNNLIGCIIGRQGANINEIRQMSGAQIKIANPVEGSSGRQVTITGSAASISLAQYLINARLSSE

Variants of: B1
method-notes: abundance fitness (aPCA) (normalised: wild type 0, dead -1); higher = more abundant; growth selection in yeast, the domain comes from the species named
experimental-parameters: Homo sapiens
Give bare numbers.

Recorded results for 2 variants are shown here.
Suppose we examine the variant `G33E` ; what abundance fitness value has been reported?
-0.541

Request: `I14C`
-0.252

Each variant below has a reported value. Please supply its abundance fitness.
1. K37E
2. L13R
3. T1G

[0.01, -0.082, -0.02]
